tested on: HT-29; experiment: Cytotoxicity against human HT-29 cells assessed as reduction in cell viability measured after 24 hrs by MTT assay; format: functional, cell-based; settings: HT-29, 24 h
Measured IC50 values are reported for all entries that follow.
assay_readout: IC50

[[record]]
substance_smiles = "COc1c(F)cc(C(=O)Nc2cc3c(cc2C(=O)NN)OCCO3)cc1F"
target = "HT-29"
assay_value = "> 20 µM"

[[record]]
substance_smiles = "COC(=O)c1cc2c(cc1NC(=O)c1cc(Br)c(OC)c(Br)c1)OCCO2"
target = "HT-29"
assay_value = "> 20 µM"

[[record]]
substance_smiles = "COc1cc(C(=O)Nc2cc3c(cc2C(=O)NN)OCCO3)cc(OC)c1OC"
target = "HT-29"
assay_value = "> 20 µM"

[[record]]
substance_smiles = "COC(=O)c1cc2c(cc1NC(=O)c1cc(F)c(OC)c(F)c1)OCCO2"
target = "HT-29"
assay_value = "> 20 µM"


---

system: MCF7; experiment: Cytotoxicity against human MCF7 cells assessed as reduction in cell viability measured after 24 hrs by MTT assay; conditions: MCF7, 24 h
assay_readout: IC50

[[record]]
substance_smiles = "COc1cc(C(=O)Nc2cc3c(cc2C(=O)NN)OCCO3)cc(OC)c1OC"
assay_readout = "IC50"
assay_value = "> 20 µM"

[[record]]
substance_smiles = "COC(=O)c1cc2c(cc1Nc1ccc(OC)cc1)OCCO2"
assay_readout = "IC50"
assay_value = "> 20 µM"

[[record]]
substance_smiles = "COc1c(F)cc(C(=O)Nc2cc3c(cc2C(=O)NN)OCCO3)cc1F"
assay_readout = "IC50"
assay_value = "> 20 µM"

[[record]]
substance_smiles = "COC(=O)c1cc(OC)c(OC)cc1Nc1cc(Br)c(OC)c(Br)c1"
assay_readout = "IC50"
assay_value = "> 20 µM"

[[record]]
substance_smiles = "COc1c(F)cc(Nc2cc3c(cc2C(=O)NN)OCO3)cc1F"
assay_readout = "IC50"
assay_value = "> 20 µM"

[[record]]
substance_smiles = "COc1ccc(Nc2cc3c(cc2C(=O)NN)OCCO3)cc1"
assay_readout = "IC50"
assay_value = "> 20 µM"

[[record]]
substance_smiles = "COC(=O)c1cc2c(cc1Nc1cc(F)c(OC)c(F)c1)OCCO2"
assay_readout = "IC50"
assay_value = "> 20 µM"

[[record]]
substance_smiles = "NNC(=O)c1cc2c(cc1Nc1ccc3c(c1)OCO3)OCCO2"
assay_readout = "IC50"
assay_value = "> 20 µM"

[[record]]
substance_smiles = "COC(=O)c1cc(OC)c(OC)cc1Nc1cc(OC)c(OC)c(OC)c1"
assay_readout = "IC50"
assay_value = "> 20 µM"

[[record]]
substance_smiles = "COC(=O)c1cc2c(cc1Nc1cc(F)c(OC)c(F)c1)OCO2"
assay_readout = "IC50"
assay_value = "> 20 µM"

[[record]]
substance_smiles = "COc1c(Br)cc(Nc2cc3c(cc2C(=O)O)OCO3)cc1Br"
assay_readout = "IC50"
assay_value = "16 µM"

[[record]]
substance_smiles = "COC(=O)c1cc2c(cc1Nc1ccc3c(c1)OCCO3)OCCO2"
assay_readout = "IC50"
assay_value = "8.6 µM"

[[record]]
substance_smiles = "COC(=O)c1cc2c(cc1Nc1cc(Br)c(OC)c(Br)c1)OCO2"
assay_readout = "IC50"
assay_value = "6.46 µM"

[[record]]
substance_smiles = "COc1c(F)cc(Nc2cc3c(cc2C(=O)NN)OCCO3)cc1F"
assay_readout = "IC50"
assay_value = "15.4 µM"

[[record]]
substance_smiles = "COC(=O)c1cc2c(cc1NC(=O)c1cc(F)c(OC)c(F)c1)OCCO2"
assay_readout = "IC50"
assay_value = "> 20 µM"


---

tested on: MCF7; assay: Cytotoxicity against human MCF7 cells assessed as reduction in cell viability measured after 24 hrs by MTT assay; settings: MCF7, 24 h
assay_readout: IC50 (µM)

[[record]]
substance_smiles = "COC(=O)c1cc2c(cc1Nc1cc(OC)c(OC)c(OC)c1)OCO2"
bound_sign = "="
assay_value = 0.98

[[record]]
substance_smiles = "COc1cc(Nc2cc3c(cc2C(=O)O)OCCO3)cc(OC)c1OC"
bound_sign = "="
assay_value = 6.76

[[record]]
substance_smiles = "COC(=O)c1cc2c(cc1NC(=O)c1cc(Br)c(OC)c(Br)c1)OCCO2"
bound_sign = ">"
assay_value = 20

[[record]]
substance_smiles = "COc1ccc(Nc2cc3c(cc2C(N)=O)OCCO3)cc1OC"
bound_sign = "="
assay_value = 13.1

